assay: Drug level in mouse brain at 10 mg/kg, ip; format: ADME, organism-based; conditions: in vivo, read-out: Ct
measurement_name: concentration (nM)
Note: unit nM is implicit; provide only the numeric part.

[in] Any idea what its concentration is? The molecule is "Cc1cccc(-n2ccc(O[C@H](C)COc3ccccc3)cc2=O)c1"
[out] 386

====

In this section, each of the compounds is paired with its reported half-life.
experiment: Half life in iv dosed rat; assay type: ADME, organism-based; settings: in vivo
Please append the unit to your numeric answer.

[[record]]
structure = "Cc1cccc(-n2ccc(O[C@H](C)COc3ccccc3)cc2=O)c1"
measurement_name = "half-life"
assay_value = "2 h"


[in] Consider the compound "C[C@@H](COc1ccn(-c2ccc(F)cc2)c(=O)c1)Oc1ccccc1" and give its measured half-life.
[out] 0.39 h

====

test: Permeability coefficient, Kp in rat brain; assay type: ADME, tissue-based
Each item that follows carries a reported Kp.
Respond with the number and no other words.

Please review the following examples before continuing.
[[record]]
molecule = "CC(COc1ccccc1)COc1ccn(-c2ccc(Cl)cc2)c(=O)c1 (single isomer, unassigned)"
measurement_name = "Kp"
assay_value = 1.6

[[record]]
molecule = "Cc1cccc(-n2ccc(O[C@H](C)COc3ccccc3)cc2=O)c1"
measurement_name = "Kp"
assay_value = 1.6


[in] Item "C[C@H](COc1ccccc1)Oc1ccn(-c2cccc(Cl)c2)c(=O)c1" has what recorded Kp?
[out] 1.42

====

Activity listing for selected compounds.
target: Metabotropic glutamate receptor 3 (Rattus norvegicus); assay: Negative allosteric modulation of rat mGlu3R expressed in HEK293 cells co-expressing Galpha15 assessed as decrease in glutamate-induced calcium mobilization relative to glutamate; format: functional, cell-based; design: concentration or dose not given beside the values
Sequence (P31422 whole entry): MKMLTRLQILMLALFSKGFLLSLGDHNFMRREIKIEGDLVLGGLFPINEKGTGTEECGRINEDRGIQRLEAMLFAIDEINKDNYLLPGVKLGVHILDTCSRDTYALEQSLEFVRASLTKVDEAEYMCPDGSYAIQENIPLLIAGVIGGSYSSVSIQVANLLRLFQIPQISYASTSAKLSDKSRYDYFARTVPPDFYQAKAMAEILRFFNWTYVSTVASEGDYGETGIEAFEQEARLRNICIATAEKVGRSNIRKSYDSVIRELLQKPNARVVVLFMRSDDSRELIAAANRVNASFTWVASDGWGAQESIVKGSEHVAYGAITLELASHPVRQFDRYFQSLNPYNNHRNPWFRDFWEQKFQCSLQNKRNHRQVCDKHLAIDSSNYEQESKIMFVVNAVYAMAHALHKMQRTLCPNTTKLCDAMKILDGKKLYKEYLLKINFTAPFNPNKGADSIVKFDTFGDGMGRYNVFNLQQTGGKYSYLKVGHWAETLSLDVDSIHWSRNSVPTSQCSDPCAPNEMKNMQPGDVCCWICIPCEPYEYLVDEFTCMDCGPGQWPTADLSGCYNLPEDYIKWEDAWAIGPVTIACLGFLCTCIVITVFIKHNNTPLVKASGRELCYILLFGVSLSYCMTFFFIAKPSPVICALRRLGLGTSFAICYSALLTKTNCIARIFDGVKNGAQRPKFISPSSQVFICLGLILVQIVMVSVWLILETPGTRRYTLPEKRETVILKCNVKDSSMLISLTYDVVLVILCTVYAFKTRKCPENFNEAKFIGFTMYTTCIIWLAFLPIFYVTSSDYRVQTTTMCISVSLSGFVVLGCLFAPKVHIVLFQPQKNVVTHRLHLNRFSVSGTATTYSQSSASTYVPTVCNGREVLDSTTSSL
Give the value in % but do not write % after it.

Known Activity results, listed for orientation:
[[record]]
compound = "COc1ccc(-n2ccc(O[C@H](C)COc3ccccc3)cc2=O)cc1"
tgt = "Metabotropic glutamate receptor 3 (Rattus norvegicus)"
assay_value = 19

[[record]]
compound = "Cc1cccc(-n2ccc(OCC3CCc4ccccc4O3)cc2=O)c1 (racemic)"
tgt = "Metabotropic glutamate receptor 3 (Rattus norvegicus)"
assay_value = -0.77

[[record]]
compound = "CC(COc1ccccc1)COc1ccn(-c2ccc(F)cc2)c(=O)c1 (racemic)"
tgt = "Metabotropic glutamate receptor 3 (Rattus norvegicus)"
assay_value = 6.6

[[record]]
compound = "Cc1cccc(-n2ccc(OCC(C)COc3ccccc3)cc2=O)c1 (single isomer, unassigned; form 2)"
tgt = "Metabotropic glutamate receptor 3 (Rattus norvegicus)"
assay_value = -7.3

[[record]]
compound = "C[C@H](COc1ccccc1)Oc1ccn(-c2cccc(Cl)c2)c(=O)c1"
tgt = "Metabotropic glutamate receptor 3 (Rattus norvegicus)"
assay_value = -11


[in] Reported Activity for Cc1cccc(-n2ccc(OCC(Oc3ccccc3)c3ccccc3)cc2=O)c1 (stereo not given) : what is it?
[out] 14

[in] Tell me the measured Activity of CC(COc1ccccc1)COc1ccn(-c2cccc(Cl)c2)c(=O)c1 (single isomer, unassigned) , please.
[out] -4.4

[in] What does the record list as Activity for "Cc1cccc(-n2ccc(OC[C@@H](C)Oc3ccccc3)cc2=O)c1" ?
[out] 4.7

[in] What does the record list as Activity for O=c1cc(OCC2CCc3ccccc3O2)ccn1-c1ccc(F)cc1 (racemic) ?
[out] -1.7

[in] What value of measured Activity is listed for "Cc1cccc(-n2ccc(O[C@H](C)COc3ccccc3)cc2=O)c1" ?
[out] -4.3

====

assay: Fraction unbound in rat brain homogenate; format: ADME, tissue-based
measurement_name: fraction unbound

[in] Need fraction unbound, item "C[C@H](COc1ccccc1)Oc1ccn(-c2cccc(Cl)c2)c(=O)c1"
[out] 0.014

[in] Name the reported fraction unbound value associated with the molecule CC(COc1ccccc1)COc1ccn(-c2ccc(Cl)cc2)c(=O)c1 (single isomer, unassigned)
[out] 0.008

[in] Return reported fraction unbound; argument: "Cc1cccc(-n2ccc(O[C@H](C)COc3ccccc3)cc2=O)c1"
[out] 0.018

====

assay: Volume of distribution at steady state in iv dosed rat; assay type: ADME, organism-based; settings: in vivo, read-out: Vdss
measurement_name: Vd (L/kg)
Answer format: numeric, L/kg implied, no suffix.

[[record]]
structure = "Cc1cccc(-n2ccc(O[C@H](C)COc3ccccc3)cc2=O)c1"
measurement_name = "Vd"
assay_value = 3.82


Next:
[in] Reported Vd, molecule "C[C@@H](COc1ccn(-c2ccc(F)cc2)c(=O)c1)Oc1ccccc1" : ____
[out] 2.05

====

Quick reference for clearance among some compounds
assay: Plasma clearance in iv dosed rat; assay type: ADME, organism-based
Remember to quote the unit after the number.

[[record]]
structure = "C[C@@H](COc1ccn(-c2ccc(F)cc2)c(=O)c1)Oc1ccccc1"
assay_value = "76.3 mL/min/kg"


[in] Requested field: clearance. Item: "Cc1cccc(-n2ccc(O[C@H](C)COc3ccccc3)cc2=O)c1"
[out] 31 mL/min/kg

====

target: Metabotropic glutamate receptor 3 (Rattus norvegicus); assay: Negative allosteric modulation of rat mGlu3R expressed in HEK cells harboring GIRK assessed as reduction in glutamate-induced thallium flux preincubated for 5 mins followed by glutamate addition and measured after 2 mins by BTC-AM-dye based fluorescence assay; assay type: cell-based
measurement_name: IC50

[in] I am curious: what IC50 value has been reported for "C[C@@H](COc1ccn(-c2ccc(F)cc2)c(=O)c1)Oc1ccccc1" ?
[out] 1280 to 1300 nM

====

Let's look at some compounds and their measured MRT.
experiment: MRT in iv dosed rat; assay type: ADME, organism-based; conditions: in vivo

[[record]]
structure = "Cc1cccc(-n2ccc(O[C@H](C)COc3ccccc3)cc2=O)c1"
measurement_name = "MRT"
assay_value = "2.05 h"


# evaluate next
[in] Quick one: MRT for "C[C@@H](COc1ccn(-c2ccc(F)cc2)c(=O)c1)Oc1ccccc1" ?
[out] 0.448 h

====

target: Metabotropic glutamate receptor 3 (Rattus norvegicus); experiment: Negative allosteric modulation of rat mGlu3R expressed in HEK293 cells co-expressing Galpha15 assessed as decrease in glutamate-induced calcium mobilization relative to glutamate; type: functional, cell-based; set-up: concentration or dose not given beside the values
Catalogue of Activity values
Reply numerically in %, unit not repeated.

Consider the reported Activity for these compounds:
[[record]]
compound = "Cc1cccc(-n2ccc(OC[C@H](C)Oc3ccccc3)cc2=O)c1"
assay_value = -7.4

[[record]]
compound = "O=c1cc(OCC(Oc2ccccc2)c2ccccc2)ccn1-c1ccc(F)cc1 (stereo not given)"
assay_value = 4.9

[[record]]
compound = "C[C@@H](COc1ccccc1)Oc1ccn(-c2ccc(F)cc2)c(=O)c1"
assay_value = 32


[in] Give the measured Activity of "C[C@H](COc1ccccc1)Oc1ccn(-c2ccc(F)cc2)c(=O)c1" .
[out] -2.2

[in] Which Activity is reported for this compound? "C[C@H](COc1ccn(-c2ccc(F)cc2)c(=O)c1)Oc1ccccc1"
[out] 1.3

[in] Quick one: Activity for Cc1cccc(-n2ccc(OCC(C)COc3ccccc3)cc2=O)c1 (racemic) ?
[out] 4.6

[in] Field request: Activity | item: CC(COc1ccccc1)COc1ccn(-c2ccc(Cl)cc2)c(=O)c1 (single isomer, unassigned)
[out] 36

[in] Please report the recorded Activity for Cc1cccc(-n2ccc(OCC(C)COc3ccccc3)cc2=O)c1 (single isomer, unassigned; form 1) .
[out] -6.6

[in] I would be grateful if you could share the reported Activity for "C[C@@H](COc1ccn(-c2ccc(F)cc2)c(=O)c1)Oc1ccccc1" .
[out] -5.7

[in] Using the record for "C[C@H](COc1ccccc1)Oc1ccn(-c2ccc(Cl)cc2)c(=O)c1" , report its Activity.
[out] -7.9

====

Recorded fraction unbound by entry
experiment: Fraction unbound in rat plasma; assay type: ADME, cell-free
// print number alone

Below, each entry is followed by its recorded fraction unbound result.
[[record]]
compound = "C[C@H](COc1ccccc1)Oc1ccn(-c2cccc(Cl)c2)c(=O)c1"
assay_value = 0.045

[[record]]
compound = "CC(COc1ccccc1)COc1ccn(-c2ccc(Cl)cc2)c(=O)c1 (single isomer, unassigned)"
assay_value = 0.01


Kindly review the next compound as well.
[in] What does the data say about its fraction unbound? Entry: "Cc1cccc(-n2ccc(O[C@H](C)COc3ccccc3)cc2=O)c1"
[out] 0.055

====

assay: Brain to plasma permeability coefficient, Kp in mouse at 10 mg/kg, ip; assay type: ADME, organism-based
measurement_name: Kp
Reply: number alone, nothing else.

[in] Could you tell me which Kp is on file for "Cc1cccc(-n2ccc(O[C@H](C)COc3ccccc3)cc2=O)c1" ?
[out] 1.42

Every entry's value here was drawn from ChEMBL document CHEMBL4346754.
